Attribute: IC50
# tgt: human c-MER catalytic domain (Homo sapiens (Human))

compound: Cn1cc(-c2cnc(N)c(C(=O)N[C@@H]3CCN(C(=O)Oc4cccc(-c5cnn(C6CCNCC6)c5)c4)C3)c2)cn1 [Example 285]
IC50: 100 to 1000 nM

Then this compound:
So what does the record say about IC50 for Cn1cc(-c2cnc(N)c(C(=O)N[C@@H]3CCN(C(=O)c4cccc(-c5cccc(N6CCCCC6)c5)c4)C3)c2)cn1 [Example 477] ?
> 1000 nM

* * *

# tgt: human c-MER catalytic domain (Homo sapiens (Human))
Item-by-item account of IC50

compound: Cn1cc(-c2cnc(N)c(C(=O)N[C@@H]3CCN(C(=O)Oc4cccc(-c5cnn(CCN6CCCC6)c5)c4)C3)c2)cn1
IC50: 0.1 to 1 µM

compound: Cn1cc(-c2cnc(N)c(C(=O)N[C@@H]3CCN(C(=O)c4cccc(-c5cccc(N)c5)c4)C3)c2)cn1
IC50: > 1 µM

compound: Cn1cc(-c2cnc(N)c(C(=O)N[C@@H]3CCN(C(=O)Oc4cccc(-c5cccc(CN6CCC[C@H](N)C6)c5)c4)C3)c2)cn1
IC50: 0.1 to 1 µM

Please give the measured IC50 for this compound: `CN1CCN(Cc2ccc(-c3cnc(N)c(C(=O)N[C@@H]4CCN(C(=O)Oc5cccc(-c6ccccc6)c5)C4)c3)cc2)CC1`
0.01 to 0.1 µM

Which IC50 is reported for this compound? `Cn1cc(-c2cnc(N)c(C(=O)N[C@@H]3CCN(C(=O)Oc4cccc(-c5ccc(CCC(=O)O)cc5)c4)C3)c2)cn1`
0.1 to 1 µM

What value of IC50 has been reported for the following compound? `CN1CCN(CCc2cccc(-c3cccc(C(=O)N4CC[C@@H](NC(=O)c5cc(-c6cnn(C)c6)cnc5N)C4)c3)c2)CC1`
> 1 µM

Any idea what IC50 was measured for Cn1cc(-c2cnc(N)c(C(=O)N[C@@H]3CCN(C(=O)c4ccc(-c5ccc(OC6CCNC6)cc5)cc4)C3)c2)cn1 (stereo partly shown) ?
0.1 to 1 µM

* * *

Recorded pIC50 for the following compounds
# tgt: human c-MER catalytic domain (Homo sapiens (Human), UniProt Q12866)
# Sequence (Q12866 587-858): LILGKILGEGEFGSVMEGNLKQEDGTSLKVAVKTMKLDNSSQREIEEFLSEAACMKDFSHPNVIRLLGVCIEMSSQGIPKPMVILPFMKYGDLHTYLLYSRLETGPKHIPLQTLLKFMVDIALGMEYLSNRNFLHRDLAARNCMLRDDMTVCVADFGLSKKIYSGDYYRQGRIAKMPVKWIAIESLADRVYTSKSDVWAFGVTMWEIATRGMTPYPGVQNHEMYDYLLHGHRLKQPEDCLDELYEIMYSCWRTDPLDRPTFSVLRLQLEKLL
pIC50: −log10 of the molar value.

compound: Cc1onc(-c2ccccc2)c1C(=O)N1CC[C@@H](NC(=O)c2cc(-c3cnn(C)c3)cnc2N)C1 [Example 500]
pIC50: < 6.00

Lab note: need pIC50 with human c-MER catalytic domain (Homo sapiens (Human), UniProt Q12866) for entry Cn1cc(-c2cnc(N)c(C(=O)N[C@@H]3CCN(C(=O)c4ccc(-c5ccc(Nc6ccc(N)cc6)cc5)cc4)C3)c2)cn1 [Example 815] , please look it up.
7.00 to 8.00

Record CN(C)CCOc1ccc2ccc(OC(=O)N3CC[C@@H](NC(=O)c4cc(-c5cnn(C)c5)cnc4N)C3)cc2c1 [Example 296] : what is its pIC50 with human c-MER catalytic domain (Homo sapiens (Human), UniProt Q12866)?
7.00 to 8.00

Hello, I am looking for reported pIC50 with human c-MER catalytic domain (Homo sapiens (Human), UniProt Q12866) for Cn1cc(-c2cnc(N)c(C(=O)NC3(CO)CCN(C(=O)c4cccc(-c5ccccc5)c4)C3)c2)cn1 (stereo not shown) [Example 672] . Could you help?
< 6.00

* * *

Some molecules, each annotated with its measured IC50.
# tgt: human MER (528-end) (Homo sapiens (Human), UniProt Q12866)
# Sequence (Q12866 528-999 limits assumed): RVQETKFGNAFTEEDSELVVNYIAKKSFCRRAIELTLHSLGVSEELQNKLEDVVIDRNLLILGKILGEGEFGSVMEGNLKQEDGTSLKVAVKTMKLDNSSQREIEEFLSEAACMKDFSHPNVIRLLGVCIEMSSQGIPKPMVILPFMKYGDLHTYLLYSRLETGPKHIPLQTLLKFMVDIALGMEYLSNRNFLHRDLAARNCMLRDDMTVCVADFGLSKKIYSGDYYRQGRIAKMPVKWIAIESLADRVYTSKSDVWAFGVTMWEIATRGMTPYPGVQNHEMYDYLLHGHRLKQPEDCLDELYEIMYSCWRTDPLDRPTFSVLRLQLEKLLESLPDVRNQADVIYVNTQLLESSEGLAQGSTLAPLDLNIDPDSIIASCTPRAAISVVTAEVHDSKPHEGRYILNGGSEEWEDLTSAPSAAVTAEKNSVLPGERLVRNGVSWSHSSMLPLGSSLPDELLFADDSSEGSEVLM

molecule: Cc1cc(C(=O)N2CC[C@@H](NC(=O)c3cc(-c4cnn(C)c4)cnc3N)C2)ccc1-c1ccccc1
data-value: 100 to 1000 nM

molecule: Cn1cc(-c2cnc(N)c(C(=O)N[C@@H]3CCN(C(=O)c4ccc(-c5ccc(C(C)(C)N6CCN(CCO)CC6)cc5)cc4)C3)c2)cn1
data-value: 100 to 1000 nM

molecule: COC(=O)[C@H]1C[C@@H](NC(=O)c2cc(-c3cnn(C)c3)cnc2N)CN1C(=O)c1cccc(-c2ccccc2)c1
data-value: > 1000 nM

molecule: Cc1cc(C)cc(NC(=O)N2CC[C@@H](NC(=O)c3cc(-c4cnn(C)c4)cnc3N)C2)c1
data-value: > 1000 nM

molecule: Cn1cc(-c2cnc(N)c(C(=O)N[C@@H]3CCN(C(=O)OC4CCC(c5ccccc5)CC4)C3)c2)cn1 (some centres unmarked)
data-value: > 1000 nM

Any idea what IC50 came out for `Cn1cc(-c2cnc(N)c(C(=O)N[C@@H]3CCN(C(=O)NC4CCCCC4)C3)c2)cn1` on human MER (528-end) (Homo sapiens (Human), UniProt Q12866)?
100 to 1000 nM

Write down the reported IC50 of `Nc1ncc(-c2ccc(F)nc2)cc1C(=O)N[C@@H]1CCN(C(=O)c2ccc(-c3ccc(F)cc3Cl)cc2)C1` , test system: human MER (528-end) (Homo sapiens (Human), UniProt Q12866).
10 to 100 nM

Request body: readout IC50, system human MER (528-end) (Homo sapiens (Human), UniProt Q12866), query `Cn1cc(-c2cnc(N)c(C(=O)N[C@@H]3CCN(C(=O)Oc4cccc(-c5ccc(CN[C@H]6CCCNC6)cc5)c4)C3)c2)cn1` . Return the value.
100 to 1000 nM
